Just for reference, PubChem BioAssay (NCI) is where these values come from.

Measured TGI, listed per entry for reference.
- System: K-562 leukemia
- assay.summary: NCI tumour cell line growth inhibition, 48 h
value.kind: TGI

1) CCCCC1Cc2cc(OC)ccc2-c2n1c1cc(OC)ccc1[n+]2C (stereo not given) (tested in a mixture with another compound) : > 62.8 µM
2) CC1(CCCCO)C=CC(S(=O)(=O)c2ccccc2)CC1 (stereo not given) : 11.6 µM
3) N#C[C@H](C(=O)c1ccccc1F)c1nc2ccccc2[nH]1 : > 100 µM
4) CCOC(=O)n1c2ccccc2c(=O)n1CCO : > 100 µM
5) O=C1c2ccccc2/C=C\C(c2ccccc2)=N/N1c1ccccc1Cl : > 100 µM
6) N=C(N)c1ccc(N=Nc2c(O)ccc3cc(O)ccc23)cc1 : > 100 µM
7) COc1cccc(N2C(=O)C3CC(CC(C)(C)C)c4c([nH]c5ccccc45)C3C2=O)c1 (stereo not given) : > 10 µM
8) NC(N)=N/N=C\c1c(-c2ccccc2)nc2sccn12 : > 100 µM
9) COC(=O)c1cc2ccccc2c2nc3ccccc3c(Cl)c12 : > 100 µM
10) c1ccc2c(c1)[O][Sn][O]2 : > 150 µg/mL
11) O=C(Nc1ccc(Cl)c(C(F)(F)F)c1)C(=O)c1c(O)c2ccccc2oc1=O : > 100 µM
12) COC(=O)C1(Cc2ccccc2)Cc2c(C)ccc(C)c2C1=O (stereo not given) : > 100 µM
13) C=CC[PH+](c1ccccc1)c1ccccc1.C=CC[PH+](c1ccccc1)c1ccccc1.[Pt+2].[S-]c1ncccn1.[S-]c1ncccn1 : > 100 µM
14) Nc1ncc(Sc2ccccc2C(=O)O)s1 : > 100 µM
15) CCCCCC(/C=C/[C@@H]1[C@@H](C(O)CCCCCC(=O)OC)C(=O)C[C@H]1O[Si](C)(C)C(C)(C)C)OCOCCOC (stereo not given in full) : > 52 µM
16) O=C(O)Cc1ccc(Oc2nc3ccccc3nc2-c2ccccc2)cc1 : > 100 µM
17) CN(C)CCNC(=O)c1cccc2cc3ccc4ccccc4c3nc12 : > 100 µM
18) COc1ncc2cc1NS(=O)(=O)c1cccc(c1)C(=O)NCC1=CC=C(S1)c1ncnc3c1SC2=C3C : > 100 µM
19) N#Cc1c(N)nc2n[nH]c(N)c2c1-c1ccccc1 : > 100 µM
20) C=C1C(=O)O[C@@H]2[C@H]1C[C@H](I)[C@@]1(C)CC[C@H](O1)[C@](C)(I)CCCC(C)[C@@H]2O (stereo not given in full) : > 42.1 µM

====

Measured TGI, listed per entry for reference.
- System: UO-31 renal
- assay.summary: NCI tumour cell line growth inhibition, 48 h
value.kind: TGI

1. Nc1c(C(=O)c2ccccc2)nnc2ccccc12 : > 100 µM
2. COc1ccc2nc(-c3ccc(O)cc3)ccc2c1 : > 100 µM
3. COc1cccc(/C=N/[N-]C(N)=O)c1[O-].[OH3+].[Pd+2] : > 100 µM
4. CCc1c(C#N)c(SC(C(N)=O)c2ccccc2)nc(N2CCC(N)CC2)c1C#N (stereo not drawn) : > 100 µM
5. Oc1ccc(-c2[nH]c3ccccc3c2-c2nc3ccccc3o2)cc1 : 13.9 µM
6. COCCOCCOCCC(=O)NC1CC2CCC1(C)C2(C)C (stereo not drawn) : > 100 µM
7. CCN(CCCl)c1cc(CN(C)C)cc(NC(=O)c2cc(C(=O)Nc3cc(CN(C)C)cc(N(CC)CCCl)c3)n(C)n2)c1 : 7.42 µM
8. O=C(CN(/C=C/C(=O)C(F)(F)F)c1ccccc1)c1ccc(F)cc1 : > 100 µM
9. O=C(CCC(=O)C1Cc2ccccc2C1=O)Nc1cccc(C(F)(F)F)c1 (stereo not drawn) : > 100 µM
10. Cn1c(=O)n2n(c1=O)C(S(=O)c1ccccc1)C2 (stereo not drawn) : > 100 µM
11. CC1=C2CC(C)(C)CC(=O)C2(C)CCC1=O (stereo not drawn) : > 100 µM
12. Clc1ccc(-c2nnc(-c3nsc4ccccc34)o2)cc1 : 47.5 µM
13. CC(C)C/C(=N\NC(=O)c1ccncc1)c1cc(Cl)ccc1O : 18.6 µM
14. O[C@]12c3ccccc3C1CCCCC2N1CCOCC1 (stereo partly drawn) : > 100 µM
15. Cn1cnnc1SC(F)(F)c1nc2ccccc2o1 : > 100 µM
16. COC(=O)C1(Cc2ccccc2)Cc2c(C)ccc(C)c2C1=O (stereo not drawn) : 38 µM
17. CN(CCCNC(=O)c1c2ccc3ccccc3c2nn1C)CCCNC(=O)c1c2ccc3ccccc3c2nn1C : 19.9 µM
18. Cc1cn2c(/C=C3/C(=O)Nc4ccc(C(=O)O)cc43)c(C)nc2s1 : > 100 µM
19. O/N=C1\CSc2ccccc2C1 : > 100 µM
20. CCN(CC)CCCNc1c2ccc(Cl)cc2nc2ccc(OC)cc12 : 4.83 µM
21. CCOC(=O)C1=C(C)N(Cc2ccc(Cl)cc2Cl)[C@]2(C#N)C(O)=C(Cl)C(Cl)=C(O)[C@]12C#N : > 100 µM
22. CN(C)CCS(=O)(=O)Nc1cc(-c2ccc3ncnc(Nc4ccc(F)c(Cl)c4)c3c2)cnc1Cl : 1.69 µM
23. O=c1[nH]c(=O)n(C2CC(O)C(O)C(CO)O2)cc1F (stereo not drawn) : > 100 µM

====

Measured TGI, listed per entry for reference.
- System: DMS 273 small cell lung
- assay.summary: NCI tumour cell line growth inhibition, 48 h
value.kind: TGI

1) CC(C)=CC(=O)CC(=O)C(=O)NCCNC(=O)C(=O)CC(=O)C=C(C)C : > 50 µM
2) CC1(C)CC(O)CC(C)(C)N1.CC1(C)CC(O)CC(C)(C)N1.CC1(C)CC(O)CC(C)(C)N1.CC1(C)CC(O)CC(C)(C)N1.Cl.[Ti] : > 100 µM
3) CC(C)(C)c1cc(C(OCCl)(C(F)(F)F)C(F)(F)F)c2c(c1)C(C(F)(F)F)(C(F)(F)F)OC21c2ccccc2C(=O)c2ccccc21 : > 100 µM
4) O=C(O)C1=C(C(=O)O)Oc2ccccc2O1 : > 100 µM

====

- Tested on: HS 578T breast
- assay.summary: NCI tumour cell line growth inhibition, 48 h
value.kind: TGI (µM)

1. Cc1ccccc1CNc1c2ccccc2nc2ccccc12 : 5.99
2. CCN(CCCl)c1cc(CN(C)C)cc(NC(=O)c2cc(C(=O)Nc3cc(CN(C)C)cc(N(CC)CCCl)c3)n(C)n2)c1 : 1.52
3. O=[N+]([O-])c1ccc(/C=C\c2ccc3c(c2)OCO3)c([N+](=O)[O-])c1 : 38.5

====

- Test system: SK-MEL-2 melanoma
- assay.summary: NCI tumour cell line growth inhibition, 48 h
Measured TGI, listed per entry for reference.
value.kind: TGI (µM)

1) CC1CCC2c3c([nH]c4ccccc34)C3C(=O)N(c4ccccc4)C(=O)C3C2C1 (stereo not given) : 91.4
2) CC(C)c1cc(C(C)C)c(Cl)c(Cl)c1O (tested in a mixture with another compound) : 46.5
3) CC1=NN(c2nc(N)nc(/C=C\c3ccccc3)n2)C(C)(C)C1 : 30.6
4) COC(=O)C1=Nc2ccc(F)cc2/C1=C/c1sc(=S)[nH]c1O : 41

====

- System: HL-60(TB) leukemia
- assay.summary: NCI tumour cell line growth inhibition, 48 h; in the data active = GI50 below about 0.43 µM; inactive = the rest
Classes used: active, inactive

1. CC1(C)N=C(N)N=C(N)N1c1ccc(OCCCCNC(=O)Nc2cccc(S(=O)(=O)F)c2)c(Cl)c1 : inactive
2. CN(c1ccc(NC(=O)NCCN2CCOCC2)cc1)c1ccnc(Nc2ccc(CS(C)(=O)=O)cc2)n1 : inactive
3. CC(C)C/C(=N\NC(=O)c1ccncc1)c1cc(Cl)ccc1O : active
4. Cc1ccc(O)cc1Nc1ccnc2cc(-c3ccccn3)ccc12 : inactive
5. O=C(Nc1cccc(-n2cc(-c3ccncc3)c(-c3ccc(O)c(Cl)c3)n2)c1)Nc1ccc(Cl)c(Cl)c1 : inactive
6. O=C(/C=C/c1cccc(Oc2ccc(Cl)cc2)c1)c1ccccc1 : inactive
7. CCc1c(C#N)c(SC(C(N)=O)c2ccccc2)nc(N2CCC(N)CC2)c1C#N (stereo not drawn) : inactive
8. CC1(C)OC2OC(COC(=O)C(c3ccccc3)c3ccccc3)C3OC(C)(C)OC3C2O1 (stereo not drawn) : inactive

====

- Test system: MDA-MB-435
Classes used: active, inactive

1. Nc1n[nH]c2ccc([C@@H]3Nc4c(F)cc5[nH]ncc5c4[C@H]4C5CCC(C5)[C@@H]34)cc12 (stereo partly specified) : active
2. CCN(CC)Cc1cc(Nc2cc(C(F)(F)F)c(C#N)c3nc4ccccc4n23)ccc1O : inactive
3. COc1cc2c3c(n(CCCN4CCSCC4)c(=O)c2cc1OC)-c1cc2c(cc1C3=O)OCO2 : inactive
4. Cc1ccccc1CNc1c2ccccc2nc2ccccc12 : inactive
5. O=C1C2C(C(=O)N1CC[Se][Se]CCN1C(=O)C3C(C1=O)[C@H]1C=C[C@@H]3C1)[C@H]1C=C[C@@H]2C1 (stereo partly specified) : active
6. CCN(CC)C(=O)CCCCCn1c2ccccc2c2c3c(c4c5ccccc5[nH]c4c21)C(=O)N(O)C3=O : inactive
7. CCN(CC)CCCNc1c2ccc(Cl)cc2nc2ccc(OC)cc12 : active
8. CC1(C)N=C(N)N=C(N)N1c1ccc(OCCCCNC(=O)Nc2cccc(S(=O)(=O)F)c2)c(Cl)c1 : inactive
9. CC/C(=C(/c1ccc(/C=C/C(=O)O)cc1)c1ccc2[nH]ncc2c1)c1ccc(F)cc1Cl : inactive
10. O=C(CN(/C=C/C(=O)C(F)(F)F)c1ccccc1)c1ccc(F)cc1 : inactive
11. Oc1ccc(-c2[nH]c3ccccc3c2-c2nc3ccccc3o2)cc1 : inactive
12. COc1ccc(C(=O)/C=C/c2ccc(OCc3ccccc3)c(OC)c2)cc1OC : inactive
13. COc1ncc2cc1NS(=O)(=O)c1cccc(c1)C(=O)NCC1=CC=C(S1)c1ncnc3c1SC2=C3C : inactive
14. COC(=O)c1ccc2c(c1)C(=O)c1c-2n(CCCCl)c(=O)c2cc(OC)c(OC)cc12 : inactive
15. CC(C)C/C(=N\NC(=O)c1ccncc1)c1cc(Cl)ccc1O : inactive
16. CN(C)c1ccc2c(c1)OC(N)=C(C#N)C2c1ccc2c(c1)CCCN2C (stereo unspecified) : active
